- ASSAYED TARGET: Aurora kinase B (Homo sapiens) (UniProt Q96GD4)
- Sequence (Q96GD4 whole entry): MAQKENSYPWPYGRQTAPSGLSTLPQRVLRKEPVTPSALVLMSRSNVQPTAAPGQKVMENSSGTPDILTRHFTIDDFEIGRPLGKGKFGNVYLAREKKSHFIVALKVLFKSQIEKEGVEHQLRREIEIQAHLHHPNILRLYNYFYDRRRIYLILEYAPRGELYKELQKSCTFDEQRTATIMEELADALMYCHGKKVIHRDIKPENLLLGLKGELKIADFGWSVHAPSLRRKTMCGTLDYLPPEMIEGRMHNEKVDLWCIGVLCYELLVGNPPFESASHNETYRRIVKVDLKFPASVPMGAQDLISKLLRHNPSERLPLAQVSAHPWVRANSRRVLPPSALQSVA
- TEST SUMMARY: Disruption of mitotic localization of AURKB in human RPE-MYC H2B-GFP cells assessed as induction of mitotic arrest measured after 24 hrs by fluorescence high content cell imaging analysis
- Type: cell-based
MEC strictly under 1 µM means Fulfilled; at 1 µM or over means Not fulfilled.

For orientation, consider the following solved cases.
COc1cc(NC(C)=O)cc(Oc2ccnc3ccc(OC)cc23)c1; Fulfilled
COC(=O)c1cc2c(Oc3cc(NC(C)=O)cc(OC)c3)ccnc2cc1OC; Not fulfilled
COc1cc(Oc2ccnc3cc(OC)ccc23)cc(-n2cccn2)c1; Not fulfilled
COc1cc(Oc2ccnc3cc(C(F)(F)F)ccc23)cc(-n2cccn2)c1; Not fulfilled
COc1ccc(Oc2ccnc3ccccc23)cc1; Not fulfilled

Is the reported MEC for `COc1cc(OC)cc(Oc2ccnc3ccccc23)c1` strictly below 1 µM?
Fulfilled
